Target: T1, human RANKL protein (human, UniProt O14788 140-317, limits assumed)
T1 sequence (looked up): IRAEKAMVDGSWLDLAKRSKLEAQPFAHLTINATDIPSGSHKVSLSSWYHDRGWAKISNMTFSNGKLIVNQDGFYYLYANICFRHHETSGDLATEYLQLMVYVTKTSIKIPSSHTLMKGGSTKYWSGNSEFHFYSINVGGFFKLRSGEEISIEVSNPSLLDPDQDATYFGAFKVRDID
Test: competition ELISA: RANKL (0.5 ug/ml) pre-incubated with the antibody, then binding to coated human RANK (8 ug/ml) detected; blocked partner RANK
readout.label: IC50
# output: numeric value plus its unit

Reference set (2 entries):
binder	IC50
clone EBI-51-11 rabbit anti-RANKL antibody (antibody, V domains shown) VH: QSVEESGGRLITPGTPLTLTCTVSGFSLSTDVVSWVRQAPGTGLEWIGYTWSGGSTYYAIWAKGRFTISKTSSTTVDLKITSPTTEDTATYFCARGFNPFDPWGPGTLVTVSS VL: DMTQTPASVSEPVGGTVTIKCQASQNIGSNLAWYQQKPGQRPKLLIYRASTLASGVSSRFKGSGSGTQFTLTISDLECADAATYYCQQGYSAGNVDKHVFGGGTEVVVK	0.0656 µg/mL
clone EBI-51-2 rabbit anti-RANKL antibody (antibody, V domains shown) VH: QSLEESGGRLVTPGTPLTLTCTASGFTISTDVISWVRQAPGKGLEWIGYTWSGGSTYYANWAKGRFTLSKTSSTTVDLKITSPTIEDTATYFCARGFNPFDPWGPGTLVTVSS VL: DMIQTPASVSEPVGGTVTIVCQASQNIGSNFAWYQQKPGQPPKLLIYRASTLASGVSSRFKGSGFGTQFTLTISDLECADAATYYCQQGYSAGNVDNNFGGGTEVVVK	0.0389 µg/mL

stdin: For the binder clone EBI-51-1 rabbit anti-RANKL antibody (antibody, V domains shown) VH: QEQLEESGGGLVKPEGSLTLTCTASGFDLSTYYYMCWVRQAPGKGLEWIACIYTGRASTYYATWAKGRFTISKTSSTTVTLQMTSLTAADTATFFCASKAGDIWYYGMDLWGPGTLVTVSS VL: DMTQTPASVSEPVGGTVTIKCQASQNIGSNLAWYQQKPGQRPKLLIYRASTLASGVSSRFKGSGSGTQFTLTISDLECADAATYYCQQGYSAGNVDNNTFGGGTEVVVK , what IC50 is on record?
stdout: 0.0753 µg/mL
